protocol: Allopregnanolone solubility in SBE-β-CD solution
Assay type: physicochemical
assay_conditions: aqueous with cosolvent or surfactant or cyclodextrin; in 24% w/v non-encapsulated SBE-β-CD solution; read-out: allopregnanolone solubility
observable: solubility

Record CC(=O)[C@H]1CC[C@H]2[C@@H]3CC[C@H]4C[C@H](O)CC[C@]4(C)[C@H]3CC[C@]12C [allopregnanolone, 3α-hydroxy-5α-pregnan-20-one] . Reported solubility: ~6 mg/mL
